// provenance: patent EP1708961B1

- STUDY_SYSTEM: T1, recombinant human IP-10 (human, UniProt P02778 22-98)
- T1 sequence: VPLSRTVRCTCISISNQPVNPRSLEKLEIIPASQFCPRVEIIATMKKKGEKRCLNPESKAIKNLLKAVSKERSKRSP
- TEST_PROTOCOL: cell-based or functional assay
QUANTITY: inhibition of chemotaxis (IC50%) on recombinant IP-10, donor 318

1. humanized monoclonal antibody HuAIP13 (antibody, human IgG1, V domains shown, Human IgG1/kappa) VH: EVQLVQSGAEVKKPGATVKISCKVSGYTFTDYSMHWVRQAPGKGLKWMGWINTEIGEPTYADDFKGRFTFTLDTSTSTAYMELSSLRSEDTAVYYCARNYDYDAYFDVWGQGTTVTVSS VL: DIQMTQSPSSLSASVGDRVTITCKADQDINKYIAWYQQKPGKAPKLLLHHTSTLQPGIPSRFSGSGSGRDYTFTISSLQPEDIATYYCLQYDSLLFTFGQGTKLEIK ... 0.045 µg/mL
